Target: T1, Human VE-PTP (HPTP-β) containing first eight FN3 repeats with C-terminal His6 tag (Human ½ VE-PTP ECD) (human, UniProt P23467 23-820)
T1 construct: Produced in HEK293 cells and purified by the His tag; it was not cut off; also called Human Beta ½ ECD
T1 sequence: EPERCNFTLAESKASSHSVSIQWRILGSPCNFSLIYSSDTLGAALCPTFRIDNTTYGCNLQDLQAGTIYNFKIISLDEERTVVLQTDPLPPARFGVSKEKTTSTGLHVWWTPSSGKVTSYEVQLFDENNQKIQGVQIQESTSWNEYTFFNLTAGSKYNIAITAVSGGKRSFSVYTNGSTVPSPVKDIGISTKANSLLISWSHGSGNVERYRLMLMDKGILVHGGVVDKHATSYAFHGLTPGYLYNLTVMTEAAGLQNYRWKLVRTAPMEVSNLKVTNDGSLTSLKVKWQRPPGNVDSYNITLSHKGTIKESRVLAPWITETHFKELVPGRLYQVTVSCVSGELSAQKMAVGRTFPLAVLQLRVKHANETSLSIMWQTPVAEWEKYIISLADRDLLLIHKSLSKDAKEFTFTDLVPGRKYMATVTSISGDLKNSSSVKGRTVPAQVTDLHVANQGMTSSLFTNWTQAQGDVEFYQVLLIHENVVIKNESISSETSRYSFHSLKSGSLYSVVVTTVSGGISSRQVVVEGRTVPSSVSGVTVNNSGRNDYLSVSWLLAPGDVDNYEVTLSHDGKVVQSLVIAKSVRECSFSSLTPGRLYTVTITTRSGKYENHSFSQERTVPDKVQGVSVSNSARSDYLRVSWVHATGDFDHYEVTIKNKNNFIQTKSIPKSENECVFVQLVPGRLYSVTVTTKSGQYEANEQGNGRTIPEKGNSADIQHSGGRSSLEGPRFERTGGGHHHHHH
Experiment: SPR (Biacore 3000), antibody captured on anti-human IgG, antigen as analyte 25-0 nM
Description: Samples of each variant were further assessed by Biacore analysis to determine the binding affinity. Antibody binding experiments were performed on Biacore 3000™ at 25° C. Assay buffer: 10 mM HEPES buffer (pH 7.4), 150 mM NaCl, 3 mM EDTA, 0.05% P20 (polyoxyethylenesorbitan). […] Conjugation buffer: 10 mM sodium acetate buffer (pH 5). […] Binding of the antigen to the antibodies was monitored in real time. The KD was determined from the observed kₒₙ and koff values.
Reported endpoint: Ka (M⁻¹)

{"Binder": "humanized R15E6 variant HC3LC4 (antibody, human IgG4 S228P, kappa, V domains shown, Human IgG4 (S228P) / kappa, expressed in CHO cells; Signal peptides left out by range; also called VH3-VL4) VH: EVQLVESGGGLVQPGRSLRLSCTASGFTFNANAMNWVRQAPGKGLEWVGRIRTKSNNYATYYAGSVKDRFTISRDDSKNIAYLQMNSLKTEDTAVYYCVRDYYGSSAWITYWGQGTLVTVSS VL: DIVMTQSPDSLAVSLGERATINCKASQHVGTAVAWYQQKPEQPPKLLIYWASTRHTGVPDRFSGSGSGTDFTLTISSLQAEDVAVYYCQQYSSYPFTFGGGTKVEIKR", "Value reported": "1.23e+08"}
{"Binder": "humanized R15E6 variant HC3LC2 (antibody, human IgG4 S228P, kappa, V domains shown, Human IgG4 (S228P) / kappa, expressed in CHO cells; Signal peptides left out by range; also called VH3-VL2) VH: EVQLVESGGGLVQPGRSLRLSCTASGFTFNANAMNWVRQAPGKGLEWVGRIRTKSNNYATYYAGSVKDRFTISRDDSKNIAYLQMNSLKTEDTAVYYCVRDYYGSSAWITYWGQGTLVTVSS VL: DIVMTQSPDSLAVSLGERATINCKASQHVGTAVAWYQQKPGQPPKLLIYWASTRHTGVPDRFSGSGSGTDFTLTISSLQAEDVAVYYCQQYSSYPFTFGQGTKLEIKR", "Value reported": "4.3e+07"}
{"Binder": "humanized R15E6 variant HC2LC2 (antibody, human IgG4 S228P, kappa, V domains shown, Human IgG4 (S228P) / kappa, expressed in CHO cells; Signal peptides left out by range; also called VH2-VL2) VH: EVQLVESGGGLVQPGGSLRLSCAASGFTFNANAMNWVRQAPGKGLEWVGRIRTKSNNYATYYAGSVKDRFTISRDDSKNSLYLQMNSLKTEDTAVYYCVRDYYGSSAWITYWGQGTLVTVSS VL: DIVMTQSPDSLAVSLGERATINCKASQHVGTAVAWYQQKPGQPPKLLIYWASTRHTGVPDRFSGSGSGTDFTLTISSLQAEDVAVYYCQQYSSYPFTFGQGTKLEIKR", "Value reported": "1.98e+07"}
{"Binder": "humanized R15E6 variant HC2LC3 (antibody, human IgG4 S228P, kappa, V domains shown, Human IgG4 (S228P) / kappa, expressed in CHO cells; Signal peptides left out by range; also called VH2-VL3) VH: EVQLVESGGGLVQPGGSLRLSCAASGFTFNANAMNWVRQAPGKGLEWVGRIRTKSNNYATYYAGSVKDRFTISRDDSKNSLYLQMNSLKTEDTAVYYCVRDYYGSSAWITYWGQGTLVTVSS VL: DIQMTQSPFSLSASVGDRVTITCKASQHVGTAVAWYQQKPGKAPKLLIYWASTRHTGVPSRFSGSGSGTDFTLTISSLQPEDFATYFCQQYSSYPFTFGGGTKLEIKR", "Value reported": "6.75e+08"}
